Each recorded value in this set is attributed to patent US20250249007A1.

protocol: Dose normalized steady-state AUCtau in non-COPD subjects with and without hepatic impairment
Assay type: in vivo, human
measurementContext: human, plasma, inhaled, 3 mg, subjects with moderate hepatic impairment (n=10), dose normalized to 3 mg, FIG. 3
parameterMeasured: AUC

## Input Report AUC for COc1cc2c(cc1OC)-c1c/c(=N\c3c(C)cc(C)cc3C)n(CCNC(N)=O)c(=O)n1CC2 please.
## Output 4 to 11 ng·h/mL
